I'd be grateful if you could share measured Percent Effect for these entries.
# Target desc: Sialic acid-binding Ig-like lectin 9 (Homo sapiens)
# Protocol details: Hs-Siglec9 ALPHAscreen SOP 20170721
# Parameters: scale not given: direction of the effect not stated beside the values
# Test parameters: 10 µM
Answer format: numeric, % implied, no suffix.

Task: State the recorded Percent Effect for this entry: Cc1cc(C)c(CNC(=O)N2CCN(c3ncccn3)CC2)c(=O)[nH]1
Output: 6.02

Task: Any idea what Percent Effect was measured for CC(O)CN1CCN(Cc2nnc(C3CC3)o2)CC1 (stereo not drawn) ?
Output: -11.8

Task: Need Percent Effect of O=C(O)c1cc2c(nc1O)CC(c1cccs1)CC2=O (stereo not drawn) , thanks.
Output: -0.782

Task: Which Percent Effect value belongs to Cc1ccc(CN2CCOC3(CCCN(C(=O)c4ccco4)C3)C2)s1 (stereo not drawn) ?
Output: 8.56

Task: Which Percent Effect is reported for this molecule? CCOCC1CN(C(=O)C2=CCCC2)Cc2cnn(CC)c21 (stereo not drawn)
Output: 0.664

Task: # query: Percent Effect of entry CNC(=O)Nc1cc(-c2ccccc2C)nn1CCO
Output: -9.84

Task: For the molecule shown here, O=C(c1cnco1)N1C[C@@H]2CC[C@H](Oc3ccccc3F)[C@@H]2C1 , give the reported Percent Effect.
Output: -7.43

Task: Please look up its Percent Effect: CN1CCCc2cc(CNC(=O)c3ccncc3)ccc21
Output: -0.0483

Task: Fill in the blank: the reported Percent Effect of Cc1cc(CN2CCC(c3ccnn3CCO)CC2)no1 is ____.
Output: 7.01

Task: What value of Percent Effect has been recorded for this entry: Cc1nc(C(=O)N2CCCC(n3cncn3)C2)cs1 (stereo not drawn)
Output: 3.18

Task: Name the recorded Percent Effect for COc1ccc2cc(C(=O)N3CCCCC3CC(N)=O)[nH]c2c1 (stereo not drawn) .
Output: 13.8

Task: Look up Percent Effect: Cc1nc(CN2CCC3(CCN(c4ncc(F)cn4)C3)C2=O)cs1 (stereo not drawn)
Output: -14.7

Task: May I ask what Percent Effect has been recorded for Cc1ccc(C2CCCN2Cc2nc3c(cnn3C)c(=O)[nH]2)cc1C (stereo not drawn) ?
Output: -1.46

Task: What value of Percent Effect has been recorded for this entry: Cc1nc(CN2CCCC2c2nc(C(C)C)no2)cs1 (stereo not drawn)
Output: 15.3

Task: What does the data say about its Percent Effect? Entry: O=C(c1ccco1)N1CCC2(CCOC2)C1 (stereo not drawn)
Output: -1.73

Task: What value of measured Percent Effect is listed for CCN1CC(C(=O)N(C)Cc2ccon2)CC1=O (stereo not drawn) ?
Output: -7.7

Task: Fill blank: measured Percent Effect of the molecule Cc1ccc(CN2Cc3c(C(=O)N(C)C)nn(C)c3C2)s1 is ____.
Output: 6.15

Task: What value of Percent Effect has been reported for the following molecule? CCc1n[nH]c(C2CN(C(=O)c3cc4c(s3)CCCC4)CCO2)n1 (stereo not drawn)
Output: -4.74

Task: Consider the molecule shown here: CN1CCN(Cc2ccccc2CNC(=O)c2ccc(Br)cc2F)CC1 What is its recorded Percent Effect?
Output: 7.25

Task: Recorded Percent Effect for c1csc(-c2noc(CCCN3CCCC3Cn3cccn3)n2)c1 (stereo not drawn) , please?
Output: 4.78

Task: I am curious: what Percent Effect value has been reported for c1ncn(CC2CCCCN2Cc2noc(C3CC3)n2)n1 (stereo not drawn) ?
Output: 1.81

Task: Return reported Percent Effect; argument: Cn1nnc2c1CCN(CC1CC1)C2COCc1ccccc1 (stereo not drawn)
Output: -5.75

Task: Query (molecule): CC(C)CCc1noc(CN2CCCN(C(=O)c3ccco3)CC2)n1 ; field requested: Percent Effect
Output: 4.33
